# experimentalParameters: in tert-butanol, 323.05 K
measuredProperty: solubility (mole fraction)

1. Cc1cccc(C(=O)O)c1[N+](=O)[O-] = 0.0711

----------
# experimentalParameters: in n-butanol, 319.75 K
measuredProperty: solubility (mole fraction)

1) Cc1ccc([N+](=O)[O-])c(C(=O)O)c1 = 0.295

----------
# experimentalParameters: in tert-butanol, 309.85 K
measuredProperty: solubility (mole fraction)

1. Cc1ccc([N+](=O)[O-])c(C(=O)O)c1 = 0.295

----------
# experimentalParameters: in n-butanol, 324.15 K
measuredProperty: solubility (mole fraction)

1. Cc1cccc(C(=O)O)c1[N+](=O)[O-] = 0.0406

Where do the numbers come from? From BigSolDB 2.1.
